- TARGET OR TEST SYSTEM: ERRα (Homo sapiens)
- Sequence (P11474 whole entry, species assumed): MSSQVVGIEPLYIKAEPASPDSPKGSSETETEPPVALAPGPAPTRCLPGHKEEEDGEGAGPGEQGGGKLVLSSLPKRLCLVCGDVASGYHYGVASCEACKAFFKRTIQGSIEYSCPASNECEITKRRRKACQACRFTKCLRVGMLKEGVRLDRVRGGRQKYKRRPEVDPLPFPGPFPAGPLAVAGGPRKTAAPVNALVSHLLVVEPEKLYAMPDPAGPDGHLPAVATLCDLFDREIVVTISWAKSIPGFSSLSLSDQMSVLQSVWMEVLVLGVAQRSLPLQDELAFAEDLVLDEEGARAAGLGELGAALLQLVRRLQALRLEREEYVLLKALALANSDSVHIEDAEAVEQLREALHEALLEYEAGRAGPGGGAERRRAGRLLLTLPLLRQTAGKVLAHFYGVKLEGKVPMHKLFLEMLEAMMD
- EXPERIMENT: ERRE luciferase reporter assay in HEK293 cells transfected with pcDNA3.1 ERRα
- CONDITIONS USED: HEK293 cells transfected with ERRE reporter construct and pcDNA3.1 ERRα; compound for 24 hours; luciferase activity
OBSERVABLE: EC50

Fill blank: measured EC50 of the compound COc1ccc(-c2nnc(-c3cccc(OC)c3)o2)cc1 is ____.
< 1000 nM

I am curious: what EC50 value has been reported for Nc1ccccc1-c1nnc(-c2ccccc2)o1 ?
1000 to 5000 nM

May I ask what EC50 has been recorded for c1ccc(-c2nnc(-c3ccc4ccccc4n3)o2)cc1 ?
> 5000 nM

Could you tell me which EC50 is on file for COc1cccc(-c2nnc(-c3cccc(C(F)(F)F)c3)o2)c1 ?
1000 to 5000 nM

Entry COc1cccc(-c2nnc(-c3ccccc3)s2)c1 has what EC50?
< 1000 nM

Could you tell me which EC50 is on file for O=[N+]([O-])c1cccc(-c2nnc(-c3cccc(C(F)(F)F)c3)o2)c1 ?
1000 to 5000 nM

Query: EC50; subject: Brc1ccc(-c2nnc(-c3ccccc3)o2)cc1
< 1000 nM

Fill in: EC50 of O=[N+]([O-])c1ccccc1-c1nnc(-c2cccc(C(F)(F)F)c2)o1 is ___
1000 to 5000 nM

Name the recorded EC50 for COc1ccc([N+](=O)[O-])c(-c2nnc(-c3ccccc3)s2)c1 .
1000 to 5000 nM

What EC50 value was documented for this compound, Clc1ccccc1-c1nnc(-c2nccs2)s1 ?
> 5000 nM

---

- TARGET OR TEST SYSTEM: ERRγ (Homo sapiens, UniProt P62508)
- EXPERIMENT: ERRE luciferase reporter assay in HEK293 cells transfected with pcDNA3.1 ERRγ
- CONDITIONS USED: HEK293 cells transfected with ERRE reporter construct and pcDNA3.1 ERRγ; compound for 24 hours; luciferase activity
OBSERVABLE: EC50

Any idea what EC50 was measured for FC(F)(F)c1ccc(-c2nnc(-c3cccs3)o2)cc1 ?
1000 to 5000 nM

---

- TARGET OR TEST SYSTEM: ERRγ (Homo sapiens, UniProt P62508)
- Sequence (P62508 1-458): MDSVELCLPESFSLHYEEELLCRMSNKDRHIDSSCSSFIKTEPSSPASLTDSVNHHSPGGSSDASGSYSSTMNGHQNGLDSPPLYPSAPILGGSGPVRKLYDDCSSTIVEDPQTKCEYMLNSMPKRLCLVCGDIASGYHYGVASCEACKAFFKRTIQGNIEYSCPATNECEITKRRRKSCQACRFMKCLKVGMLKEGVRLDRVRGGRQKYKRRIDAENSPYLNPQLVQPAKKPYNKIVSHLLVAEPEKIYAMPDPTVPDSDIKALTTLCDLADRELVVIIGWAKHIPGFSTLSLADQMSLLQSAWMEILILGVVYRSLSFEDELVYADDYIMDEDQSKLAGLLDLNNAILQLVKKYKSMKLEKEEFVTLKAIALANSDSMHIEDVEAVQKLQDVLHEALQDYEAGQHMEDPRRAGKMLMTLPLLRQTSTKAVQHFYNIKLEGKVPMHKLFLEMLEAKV
- EXPERIMENT: ERRE luciferase reporter assay in HEK293 cells transfected with pcDNA3.1 ERRγ
- CONDITIONS USED: HEK293 cells transfected with ERRE reporter construct and pcDNA3.1 ERRγ; compound for 24 hours; luciferase activity
Items are presented alongside their recorded EC50.

Cc1ccc(-c2nnc(-c3ccc(C(F)(F)F)cc3)o2)o1 :: > 5000 nM

Any idea what EC50 was measured for Cc1ccc(-c2nnc(-c3ccc4ccccc4c3)s2)cc1 ?
< 1000 nM

// query EC50 value for entry O=[N+]([O-])c1ccc(-c2nnc(-c3cccc(C(F)(F)F)c3)o2)cc1
> 5000 nM

Name the reported EC50 value associated with the compound O=[N+]([O-])c1ccccc1-c1nnc(-c2ccc(Cl)cc2)o1
> 5000 nM
